- test_target: Human immunodeficiency virus type 1 integrase (Human immunodeficiency virus 1, UniProt Q7ZJM1)
- Sequence (Q7ZJM1 whole entry): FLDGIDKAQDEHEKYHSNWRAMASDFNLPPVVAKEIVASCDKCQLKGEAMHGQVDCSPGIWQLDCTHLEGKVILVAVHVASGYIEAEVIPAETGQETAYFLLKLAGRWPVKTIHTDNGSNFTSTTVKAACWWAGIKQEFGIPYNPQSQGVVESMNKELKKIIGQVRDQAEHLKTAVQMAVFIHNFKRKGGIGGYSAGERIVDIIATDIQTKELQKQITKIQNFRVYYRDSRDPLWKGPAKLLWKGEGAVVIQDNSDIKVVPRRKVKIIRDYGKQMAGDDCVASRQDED
- experiment_description: Inhibition of HIV1 integrase strand transfer activity by ELISA
value_type: log10 of IC50 (log10 of the value in nM)
In our notation, the value equals log10 of IC50 in nM.

Field: example entries. Status: answers known.
| given_smiles | log10 of IC50 |
| --- | --- |
| COc1cccc2c1c(C(=O)/C=C(\O)C(=O)O)cn2Cc1cc(F)ccc1F | 1.30 |
| CCOC(=O)/C(O)=C/C(=O)c1cn(Cc2ccccc2F)c2cccc(OC)c12 | 2.86 |
| CCOC(=O)/C(O)=C/C(=O)c1cn(Cc2cccc(F)c2F)c2cccc(OC)c12 | 1.08 |
| CCOC(=O)/C(O)=C/C(=O)c1cn(Cc2cc(F)ccc2F)c2cccc(OC)c12 | 2.60 |
| CCOC(=O)/C(O)=C/C(=O)c1cn(Cc2c(F)ccc(F)c2F)c2cccc(OC)c12 | 2.91 |

q: // lookup log10 of IC50 for `CCOC(=O)/C(O)=C/C(=O)c1cn(Cc2cccc(F)c2)c2cccc(OC)c12`
a: 3.35

q: Fill in the blank: the reported log10 of IC50 of `COc1cccc2c1c(C(=O)/C=C(\O)C(=O)O)cn2Cc1c(F)ccc(F)c1F` is ____.
a: 2.20

====

- experiment_description: Selectivity index, ratio of CC50 for human MT4 cells to EC50 for HIV1 3B
- Type: toxicity, cell-based
- test_parameters: read-out: Ratio CC50/EC50
value_type: selectivity ratio
Give the value as a plain number.

Previously resolved entries follow.
| given_smiles | value_type | observed_value |
| --- | --- | --- |
| COc1cccc2c1c(C(=O)/C=C(\O)C(=O)O)cn2Cc1ccccc1F | selectivity ratio | 228 |
| COc1cccc2c1c(C(=O)/C=C(\O)C(=O)O)cn2Cc1ccc(F)c(F)c1 | selectivity ratio | 25 |

Next compound, please.
q: I have this compound here, `CCOC(=O)/C(O)=C/C(=O)c1cn(Cc2cccc(F)c2)c2cccc(OC)c12` , and I need its recorded selectivity ratio.
a: 28.5

====

IC50 values for the compounds below.
- test_target: Human immunodeficiency virus type 1 integrase (Human immunodeficiency virus 1)
- experiment_description: Inhibition of HIV1 integrase activity by ELISA
The response must be a number in nM with no trailing unit.

| given_smiles | value_type | unit_info | observed_value |
| --- | --- | --- | --- |
| COc1cccc2c1c(C(=O)/C=C(\O)C(=O)O)cn2Cc1cc(F)ccc1F | IC50 | nM | 50 |
| CCOC(=O)/C(O)=C/C(=O)c1cn(Cc2cc(F)cc(F)c2)c2cccc(OC)c12 | IC50 | nM | 1520 |
| CCOC(=O)/C(O)=C/C(=O)c1cn(Cc2ccccc2F)c2cccc(OC)c12 | IC50 | nM | 380 |
| CCOC(=O)/C(O)=C/C(=O)c1cn(Cc2cc(F)c(F)c(F)c2)c2cccc(OC)c12 | IC50 | nM | 2000 |
| COc1cccc2c1c(C(=O)/C=C(\O)C(=O)O)cn2Cc1ccc(F)cc1F | IC50 | nM | 10 |
| COc1cccc2c1c(C(=O)/C=C(\O)C(=O)O)cn2Cc1ccccc1F | IC50 | nM | 70 |
| CCOC(=O)/C(O)=C/C(=O)c1cn(Cc2cccc(F)c2F)c2cccc(OC)c12 | IC50 | nM | 5 |
| COc1cccc2c1c(C(=O)/C=C(\O)C(=O)O)cn2Cc1cccc(F)c1F | IC50 | nM | 10 |
| COc1cccc2c1c(C(=O)/C=C(\O)C(=O)O)cn2Cc1cc(F)cc(F)c1 | IC50 | nM | 440 |
| COc1cccc2c1c(C(=O)/C=C(\O)C(=O)O)cn2Cc1cccc(F)c1 | IC50 | nM | 30 |

q: IC50 for `COc1cccc2c1c(C(=O)/C=C(\O)C(=O)O)cn2Cc1c(F)ccc(F)c1F` ?
a: 130

====

- experiment_description: Cytotoxicity against human MT4 cells by MTT assay
- Assay type: cell-based
Grouping key: CC50. Bins: bin A (below 30 µM), bin B (30 µM to below 60 µM), bin C (60 µM or more)

Past entries and their recorded results:
| given_smiles | class_assignment |
| --- | --- |
| CCOC(=O)/C(O)=C/C(=O)c1cn(Cc2cc(F)cc(F)c2)c2cccc(OC)c12 | bin B |
| CCOC(=O)/C(O)=C/C(=O)c1cn(Cc2ccc(F)c(F)c2F)c2cccc(OC)c12 | bin B |
| CCOC(=O)/C(O)=C/C(=O)c1cn(Cc2ccc(F)cc2F)c2cccc(OC)c12 | bin C |
| CCOC(=O)/C(O)=C/C(=O)c1cn(Cc2cccc(F)c2)c2cccc(OC)c12 | bin C |
| COc1cccc2c1c(C(=O)/C=C(\O)C(=O)O)cn2Cc1ccc(F)c(F)c1F | bin A |

q: Class label required: `CCOC(=O)/C(O)=C/C(=O)c1cn(Cc2c(F)cccc2F)c2cccc(OC)c12`
a: bin C

q: Dear colleague, I would appreciate it if you could identify the bin for `CCOC(=O)/C(O)=C/C(=O)c1cn(Cc2ccccc2F)c2cccc(OC)c12` and reply at your convenience.
a: bin C

q: Into which category would you place `COc1cccc2c1c(C(=O)/C=C(\O)C(=O)O)cn2Cc1cccc(F)c1F` ?
a: bin A

====

- experiment_description: Selectivity index, ratio of CC50 for human MT4 cells to EC50 for HIV1 3B
- Format: toxicity, cell-based
- test_parameters: read-out: Ratio CC50/EC50
Note to self: values exactly at 20 are label 1. So selectivity ratio at or above 20 is label 1, below is label 0.

| given_smiles | class_assignment |
| --- | --- |
| CCOC(=O)/C(O)=C/C(=O)c1cn(Cc2cc(F)ccc2F)c2cccc(OC)c12 | label 0 |
| COc1cccc2c1c(C(=O)/C=C(\O)C(=O)O)cn2Cc1cc(F)cc(F)c1 | label 0 |
| COc1cccc2c1c(C(=O)/C=C(\O)C(=O)O)cn2Cc1cccc(F)c1F | label 1 |

q: Identify whether the reported selectivity ratio of the following molecule is 20 or greater: `COc1cccc2c1c(C(=O)/C=C(\O)C(=O)O)cn2Cc1c(F)cccc1F`
a: label 1

====

- test_target: Human immunodeficiency virus type 1 integrase (Human immunodeficiency virus 1)
- experiment_description: Inhibition of HIV1 integrase strand transfer activity by ELISA
Ranges used to classify IC50: low: < 80 nM; mid: ≥ 80 nM and < 700 nM; high: ≥ 700 nM

Would you please look over these solved cases?
| given_smiles | test_target | class_assignment |
| --- | --- | --- |
| COc1cccc2c1c(C(=O)/C=C(\O)C(=O)O)cn2Cc1cc(F)cc(F)c1 | Human immunodeficiency virus type 1 integrase (Human immunodeficiency virus 1) | mid |
| COc1cccc2c1c(C(=O)/C=C(\O)C(=O)O)cn2Cc1cccc(F)c1 | Human immunodeficiency virus type 1 integrase (Human immunodeficiency virus 1) | low |
| COc1cccc2c1c(C(=O)/C=C(\O)C(=O)O)cn2Cc1ccc(F)c(F)c1F | Human immunodeficiency virus type 1 integrase (Human immunodeficiency virus 1) | mid |

q: Would you mind sorting `COc1cccc2c1c(C(=O)/C=C(\O)C(=O)O)cn2Cc1ccc(F)c(F)c1` into the appropriate category?
a: mid

q: Which IC50 band matches `CCOC(=O)/C(O)=C/C(=O)c1cn(Cc2cc(F)c(F)c(F)c2)c2cccc(OC)c12` ?
a: high

q: Which class does `COc1cccc2c1c(C(=O)/C=C(\O)C(=O)O)cn2Cc1ccccc1F` fall in?
a: low

q: Which bin, given its IC50, does `CCOC(=O)/C(O)=C/C(=O)c1cn(Cc2cc(F)cc(F)c2)c2cccc(OC)c12` occupy?
a: high

q: Which of the defined bands does the recorded IC50 of `COc1cccc2c1c(C(=O)/C=C(\O)C(=O)O)cn2Cc1cccc(F)c1F` sit within?
a: mid

q: Class (by measured IC50) for `CCOC(=O)/C(O)=C/C(=O)c1cn(Cc2ccc(F)c(F)c2F)c2cccc(OC)c12`
a: high

q: Which of the defined bands does the recorded IC50 of `CCOC(=O)/C(O)=C/C(=O)c1cn(Cc2ccc(F)cc2F)c2cccc(OC)c12` sit within?
a: mid

q: Kindly state the category for this compound: `COc1cccc2c1c(C(=O)/C=C(\O)C(=O)O)cn2Cc1cc(F)c(F)c(F)c1`
a: mid

====

- test_target: UniProtKB Q7ZJM1
- experiment_description: Inhibition of HIV1 integrase activity by ELISA
value_type: pIC50
API: returns pIC50 as number; meaning -log10 of concentration in mol/L.

In the examples that follow, each entry is paired with its recorded pIC50.
| given_smiles | pIC50 |
| --- | --- |
| COc1cccc2c1c(C(=O)/C=C(\O)C(=O)O)cn2Cc1ccc(F)c(F)c1 | 6.38 |
| CCOC(=O)/C(O)=C/C(=O)c1cn(Cc2ccc(F)c(F)c2F)c2cccc(OC)c12 | 5.52 |
| CCOC(=O)/C(O)=C/C(=O)c1cn(Cc2c(F)cccc2F)c2cccc(OC)c12 | 6.44 |

q: Look up pIC50: `COc1cccc2c1c(C(=O)/C=C(\O)C(=O)O)cn2Cc1c(F)cccc1F`
a: 6.89

q: I have this compound here, `CCOC(=O)/C(O)=C/C(=O)c1cn(Cc2ccc(F)c(F)c2)c2cccc(OC)c12` , and I need its recorded pIC50.
a: 4.58

q: # get_value(readout='pIC50', item= `CCOC(=O)/C(O)=C/C(=O)c1cn(Cc2ccc(F)cc2F)c2cccc(OC)c12` )
a: 6.96

q: Can you share its pIC50? I mean this compound: `CCOC(=O)/C(O)=C/C(=O)c1cn(Cc2cc(F)ccc2F)c2cccc(OC)c12`
a: 5.85

q: What value of pIC50 has been recorded for this entry: `COc1cccc2c1c(C(=O)/C=C(\O)C(=O)O)cn2Cc1ccc(F)c(F)c1F`
a: 6.85

q: Requested read-out: pIC50. Entry: `CCOC(=O)/C(O)=C/C(=O)c1cn(Cc2c(F)ccc(F)c2F)c2cccc(OC)c12`
a: 6.77

q: Quick check: pIC50 of `COc1cccc2c1c(C(=O)/C=C(\O)C(=O)O)cn2Cc1cc(F)c(F)c(F)c1` ?
a: 7.22

q: Value lookup for pIC50; key = `CCOC(=O)/C(O)=C/C(=O)c1cn(Cc2cccc(F)c2)c2cccc(OC)c12`
a: 6.52
